src = paper PMC12185579

Recorded pIC50, one value per entry.
Tested on: hiPSC
Assay: Alamar Blue cell viability, undifferentiated hiPSC
Assay type: cell-based, human
Settings: Homo sapiens; hiPSC, 24 h treatment; read-out: IC50 (cell viability, Alamar Blue)
To interpret pIC50, take it as minus log10 of a concentration measured in moles per litre.

CC1=CC(=O)c2ccccc2C1=O: 4.79

Now for a further molecule.
[Q] # get_value(readout='pIC50', item= CC(C)(C)c1cc(O)ccc1O [tBHQ, tert-butylhydroquinone] )
[A] 4.73
